This collection of values is drawn from patent US8927500B2.

Molecular target: MDMX (Homo sapiens, UniProt O15151)
Sequence (O15151 1-125): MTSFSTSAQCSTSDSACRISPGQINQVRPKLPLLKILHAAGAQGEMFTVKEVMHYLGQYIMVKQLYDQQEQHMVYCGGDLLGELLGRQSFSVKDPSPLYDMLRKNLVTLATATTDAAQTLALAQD
Assay: Competitive fluorescence polarization assay for MDMX
Assay type: binding
Details: competitive FP assay, read-out: Ki (MDMX)
Where a SMILES comes first, the peptide text is derived from it. Bridges are numbered along the chain shown (N, C = ends). [ ]: non-standard residue; d: D form. R8 = C=CCCCCCC[C@@](C)(N)C(=O)O; S5 = C=CCCC[C@](C)(N)C(=O)O; Aib = CC(C)(N)C(=O)O
READOUT: Ki

[[record]]
molecule = "CC(=O)N[C@@H](Cc1ccccc1)C(=O)N[C@]1(C)CCCCCCC=CCCC[C@@](C)(C(=O)N[C@@H](Cc2c[nH]cn2)C(=O)NC(C)(C)C(=O)N[C@@H](C)C(=O)N[C@H](C)C(N)=O)NC(=O)[C@H](CC(C)C)NC(=O)[C@H](CCC(N)=O)NC(=O)[C@H](Cc2ccc(O)cc2)NC(=O)[C@H](Cc2c[nH]c3ccccc23)NC(=O)[C@H](Cc2ccc(O)cc2)NC(=O)[C@H](C)NC1=O [compound 42] (Ac-F[R8]AYWYQL[S5]H[Aib]A[dA]-NH2; staple 2-9)"
study_system = "MDMX (Homo sapiens, UniProt O15151)"
val = "100 to 1000 nM"


Challenge: Any idea what Ki was measured for CC(=O)N[C@@H](CC(C)C)C(=O)N[C@H](C(=O)N[C@@H](Cc1ccccc1)C(=O)N[C@]1(C)CCCCCCC=CCCC[C@@](C)(C(=O)N[C@@H](CO)C(=O)N[C@@H](C)C(=O)N[C@@H](C)C(=O)N[C@H](C)C(N)=O)NC(=O)[C@H](CC2CCC2)NC(=O)[C@H](CCC(N)=O)NC(=O)[C@H](C)NC(=O)[C@H](Cc2c[nH]c3ccccc23)NC(=O)[C@H](Cc2ccc(O)cc2)NC(=O)[C@H](CCC(=O)O)NC1=O)[C@@H](C)O (single isomer, unassigned) ?
Response given: < 10 nM
